These measurements were taken from patent US7649001B2.

Each record here notes measured inhibition at 0.1 µM.
study-system: UniProt:P10275
Sequence (P10275 whole entry): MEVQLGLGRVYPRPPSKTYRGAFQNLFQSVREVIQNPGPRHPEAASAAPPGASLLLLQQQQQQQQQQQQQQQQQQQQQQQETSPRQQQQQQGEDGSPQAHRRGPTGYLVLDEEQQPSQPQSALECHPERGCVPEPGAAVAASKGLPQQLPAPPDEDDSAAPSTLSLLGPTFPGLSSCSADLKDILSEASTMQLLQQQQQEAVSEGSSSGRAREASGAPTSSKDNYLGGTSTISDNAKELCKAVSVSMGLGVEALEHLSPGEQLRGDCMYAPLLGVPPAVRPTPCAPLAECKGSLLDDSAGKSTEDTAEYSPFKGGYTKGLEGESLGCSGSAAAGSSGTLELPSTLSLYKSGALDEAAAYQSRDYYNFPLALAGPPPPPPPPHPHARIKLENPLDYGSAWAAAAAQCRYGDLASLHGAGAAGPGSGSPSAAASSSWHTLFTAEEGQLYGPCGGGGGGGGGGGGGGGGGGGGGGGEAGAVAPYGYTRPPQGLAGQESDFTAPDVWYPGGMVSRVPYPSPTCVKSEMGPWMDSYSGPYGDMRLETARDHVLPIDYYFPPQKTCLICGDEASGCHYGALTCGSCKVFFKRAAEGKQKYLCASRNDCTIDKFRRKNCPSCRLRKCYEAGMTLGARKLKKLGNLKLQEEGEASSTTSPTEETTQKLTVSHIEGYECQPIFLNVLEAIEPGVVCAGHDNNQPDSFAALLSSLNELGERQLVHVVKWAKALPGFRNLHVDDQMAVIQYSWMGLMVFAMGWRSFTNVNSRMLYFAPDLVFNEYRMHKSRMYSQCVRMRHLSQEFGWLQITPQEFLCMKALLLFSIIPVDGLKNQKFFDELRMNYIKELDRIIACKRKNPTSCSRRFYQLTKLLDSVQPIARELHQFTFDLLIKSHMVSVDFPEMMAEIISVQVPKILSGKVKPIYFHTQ
assay-overview: AR-binding inhibition test (wild type)
measurement-setup: read-out: Inhibition rate (%) at 100 nM Wild type
Where a name gives a salt, the structure may show the parent alone.
Report the value in % with no unit label.

C[C@H]1CCCN1c1ccc(C#N)c2ccccc12 [Compound 85]
95
C[C@H]1C[C@@H](O)CN1c1ccc(C#N)c2sccc12 [Compound 109]
98
CC1CCCN1c1ccc(C#N)c2ccccc12 (centres unmarked) [Compound 47, hydrochloride]
116
C[C@H]1[C@@H](O)CCN1c1ccc(C#N)c2sccc12 [Compound 118]
96
N#Cc1ccc(N2CCCC2)c2ccccc12 [Compound 1, 4-(1-pyrrolidinyl)-1-naphthonitrile]
88
C=C[C@@H]1CCCN1c1ccc(C#N)c2ccccc12 [Compound 82]
85
C[C@H]1[C@@H](O)CCN1c1ccc(C#N)c2ccccc12 [Compound 116]
99
N#Cc1ccc(N2CCC(O)C2)c2ccccc12 (centres unmarked) [Compound 18]
96
CC[C@@H]1CCCN1c1ccc(C#N)c2ccccc12 [Compound 84]
88
N#Cc1ccc(N2CCC(CCO)C2)c2ccsc12 (centres unmarked) [Compound 101]
93

Consider now this further molecule.
-- ask Recorded inhibition at 0.1 µM of COC[C@H]1CCCN1c1ccc(C#N)c2ccccc12 [Compound 45, hydrochloride] , please.
-- reply 105
